TARGET SYSTEM: NLuc-P2Y2R (Homo sapiens, UniProt P41231)
Sequence (P41231 2-377 limits assumed): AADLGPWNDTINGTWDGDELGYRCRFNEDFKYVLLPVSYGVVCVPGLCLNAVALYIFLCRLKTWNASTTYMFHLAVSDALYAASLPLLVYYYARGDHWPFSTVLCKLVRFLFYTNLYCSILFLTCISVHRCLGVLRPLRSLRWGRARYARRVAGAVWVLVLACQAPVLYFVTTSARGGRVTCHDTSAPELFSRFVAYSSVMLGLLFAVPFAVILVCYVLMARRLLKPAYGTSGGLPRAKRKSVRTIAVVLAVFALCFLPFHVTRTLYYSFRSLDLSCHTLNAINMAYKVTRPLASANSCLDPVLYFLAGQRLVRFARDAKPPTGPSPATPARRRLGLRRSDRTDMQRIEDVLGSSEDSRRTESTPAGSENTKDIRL
PROTOCOL SUMMARY: Calcium signal of NLuc-tagged P2Y2 receptors in 1321N1 cells
CONDITIONS USED: n = 3, read-out: UTPγS EC50 (calcium signal)
Text: To create the NLuc-P2Y2R constructs, human P2Y2R DNA (obtained from the Missouri S&T cDNA Resource Center) was amplified by PCR to remove the methionine start signal and cloned into pCR2.1 (linearized vector, Invitrogen). P2Y2R was then subcloned in-frame with the membrane-signal sequence of the 5HT3A receptor and the full-length sequence of nanoluciferase. […]
TEST READOUT: EC50 (nM)
Write it as a number; the unit nM goes unstated.

Sample O=c1ccn([C@@H]2O[C@H](COP(=O)(O)OP(=O)(O)OP(O)(O)=S)[C@@H](O)[C@H]2O)c(=O)[nH]1 [UTPγS, uridine-5′-(γ-thio)-triphosphate, reference compound] — what was its EC50?
91

Taken from paper PMC6026847.
